Test: Inhibition of recombinant mouse GALK1 using ATP as substrate incubated for 1 hr and measured by Kinase-Glo assay
Settings: read-out: IC50
pIC50: −log10 of the molar value.
Use 1 (yes) when the recorded pIC50 is no lower than 5; use 0 (no) when it is lower.

For this molecule, is measured pIC50 5 or higher? CC1=C(C(=O)Nc2nnc(C(F)(F)F)s2)C(c2ccccc2Cl)N=C(Nc2nc3ccccc3o2)N1 (stereo not drawn)
0 (no)

For this molecule, is measured pIC50 5 or higher? CC1=C(C(=O)Nc2nncs2)C(c2cccnc2Br)N=C(Nc2nc3ccccc3o2)N1 (stereo not drawn)
0 (no)

For this molecule, is measured pIC50 5 or higher? CC1=C(C(=O)Nc2cc(C(=O)O)ccn2)C(c2ccccc2Cl)N=C(Nc2nc3ccc(C)cc3o2)N1 (stereo not drawn)
0 (no)

For this molecule, is measured pIC50 5 or higher? CC1=C(C(=O)Nc2cc(C(=O)O)ccn2)C(c2ccc(C#N)cc2Cl)N=C(Nc2nc3ccc(F)cc3o2)N1 (stereo not drawn)
1 (yes)

For this molecule, is measured pIC50 5 or higher? CC1=C(C(=O)Nc2cc(C(=O)O)ccn2)C(c2ccc(-c3ccc(C(F)(F)F)cc3)cc2Cl)N=C(Nc2nc3ccc(F)cc3o2)N1 (stereo not drawn)
0 (no)

====

Experiment: Kinetic aqueous solubility of the compound
Format: physicochemical
Details: buffer; read-out: Kinetic_solubility
MEASURED_ENDPOINT: log10(solubility kinetic) (log10 of the value in µg/mL)
Note: values are log10 of solubility kinetic expressed in µg/mL.

Worked examples, 5 molecules total:
- MOLECULE: "CC1=C(C(=O)Nc2cccc(C(=O)O)n2)C(c2ccccc2Cl)N=C(Nc2nc3ccccc3o2)N1 (stereo not drawn)"
  log10(solubility kinetic): 1.78
- MOLECULE: "CC1=C(C(=O)NCc2ccc(C(=O)O)cc2)C(c2ccccc2Cl)N=C(Nc2nc3ccccc3o2)N1 (stereo not drawn)"
  log10(solubility kinetic): 1.67
- MOLECULE: "CCOc1ccc(C2N=C(Nc3nc4ccc(F)cc4o3)NC(C)=C2C(=O)Nc2cc(C(=O)O)ccn2)c(Cl)c1 (stereo not drawn)"
  log10(solubility kinetic): 1.05
- MOLECULE: "CC1=C(C(=O)Nc2nnc(-c3cccnc3)s2)C(c2ccccc2Cl)N=C(Nc2nc3cc(N)ccc3o2)N1 (stereo not drawn)"
  log10(solubility kinetic): 0.26
- MOLECULE: "CC1=C(C(=O)Nc2cc(C(=O)O)ccn2)C(c2ccccc2Cl)N=C(Nc2nc3ccc(C)cc3o2)N1 (stereo not drawn)"
  log10(solubility kinetic): 1.54

Dear colleague, could you please provide log10(solubility kinetic) for the molecules listed below?
1. CC1=C(C(=O)NCc2cnn(C)c2)C(c2ccccc2Cl)N=C(Nc2nc3ccccc3o2)N1 (stereo not drawn)
2. CC1=C(C(=O)Nc2cc(C(=O)O)ccn2)C(c2ccccc2Cl)N=C(Nc2nc3ccccc3o2)N1C(=O)c1ccccc1 (stereo not drawn)
3. CC1=C(C(=O)Nc2cc(C(=O)O)ccn2)C(c2ccc(C)cc2Cl)N=C(Nc2nc3ccc(F)cc3o2)N1 (racemic)
4. CC1=C(C(=O)NCc2cnn(C)c2)C(c2ccc(C)cc2Cl)N=C(Nc2nc3cccc(N)c3o2)N1 (stereo not drawn)
5. CC1=C(C(=O)Nc2cc(C(=O)O)ccn2)C(c2ccc(C(F)(F)F)cc2Cl)N=C(Nc2nc3ccc(F)cc3o2)N1 (stereo not drawn)
6. O=C(Nc1nncs1)C1=C(C(F)(F)F)NC(Nc2nc3ccccc3o2)=NC1c1ccccc1Cl (stereo not drawn)

[1.38, 1.87, 0.45, 0.65, 1.29, 1.34]

Dear colleague, could you please provide log10(solubility kinetic) for the molecules listed below?
1. CC1=C(C(=O)Nc2cc(C(=O)O)ccn2)[C@@H](c2ccccc2Cl)N=C(Nc2nc3ccc(F)cc3o2)N1
2. CC1=C(C(=O)Nc2cccc(-c3nnn[nH]3)c2)C(c2ccccc2Cl)N=C(Nc2nc3ccccc3o2)N1 (stereo not drawn)
3. CC1=C(C(=O)Nc2cc(N(C)C)ccn2)C(c2ccc(C)cc2Cl)N=C(Nc2nc3cccc(N)c3o2)N1 (stereo not drawn)
4. CC1=C(C(=O)NCc2cn(C)cn2)C(c2ccccc2Cl)N=C(Nc2nc3ccccc3o2)N1 (racemic)

1.24
1.68
0.66
1.42
